Listing: log10 of Ki of selected compounds
STUDY_SYSTEM: UniProt:P47936
MEASUREMENT_DESCRIPTION: mCB2 competition-equilibrium binding with [3H]CP-55,940, membranes of HEK293 cells expressing mCB2
TEST_CONDITIONS: HEK293 cells expressing mCB2, [3H]CP-55,940; read-out: mCB2 Ki
Heads up, the numbers here are log10 of Ki in nM units.

Consider the worked cases shown below.
In [3]: df
Out[3]:
                                   compound  assay_readout  endpoint_value
0  CC1=CC[C@H]2[C@@H](C1)c1c(O)cc(C(C)(C)C(=O)OCCCCCBr)cc1OC2(C)C [Compound 1.5]    log10 of Ki           -0.30
1  CCCCOC(=O)C1(c2cc(O)c3c(c2)OC(C)(C)[C@@H]2CC=C(C)C[C@@H]32)CCC1 [Compound 1.20]    log10 of Ki           -0.15
2  CCCCOC(=O)C(C)(C)c1cc(O)c2c(c1)OC(C)(C)[C@@H]1CC[C@@H](CO)C[C@H]21 [Compound 3.9]    log10 of Ki            0.63
3  CCCCCCC(C)(C)c1cc(O)c2c(c1)OC(C)(C)[C@@H]1CCOC(=O)C[C@@H]21 [Compound 3.11]    log10 of Ki            2.90
4  CC1=CC[C@@H]2[C@@H](C1)c1c(O)cc(C(C)(C)C(=O)OCCCN=[N+]=[N-])cc1OC2(C)C [Compound 1.9]    log10 of Ki           -0.15
5  CC1=CC[C@@H]2[C@@H](C1)c1c(O)cc(C(C)(C)C(=O)OCCBr)cc1OC2(C)C [Compound 1.36]    log10 of Ki            0.51

From here, focus on the item given below.
Record COC(=O)C(C)(C)c1cc(O)c2c(c1)OC(C)(C)[C@@H]1CC=C(C)C[C@@H]21 [Compound 1.34] : what is its log10 of Ki with UniProt:P47936?
1.54

---

Listing: pKi of selected compounds
STUDY_SYSTEM: CB1 receptor (Rattus norvegicus (Rat), UniProt P20272)
MEASUREMENT_DESCRIPTION: rCB1 competition-equilibrium binding with [3H]CP-55,940, rat brain membranes
TEST_CONDITIONS: rat brain membranes, [3H]CP-55,940; read-out: rCB1 Ki
Description: Frozen rat brains (CB1 source) are obtained from Pel-Freeze Biologicals (Rogers, Ak.) and stored at −80° C. until use. Membranes are prepared according to the method described by Dodd et al. and used in our laboratory as reported. All the cannabinoids discussed in this invention are tested for their ability to bind to CB1 and CB2 receptors using membranes from rat brain or HEK293 cells expressing either mCB2 or hCB2, respectively via competition-equilibrium binding using [^3H]CP-55,940. […]
Field pKi (float): negative decimal logarithm of the concentration in molar.

Consider the worked cases shown below.
>>> df
                                   compound                              study_system  endpoint_value
0  CC1=CC[C@@H]2[C@@H](C1)c1c(O)cc(C(C)(C)C(=O)OCCCCn3ccnc3)cc1OC2(C)C  CB1 receptor (Rattus norvegicus (Rat), UniProt P20272)            7.54
1  CCCCC(=O)OCC(C)(C)c1cc(O)c2c(c1)OC(C)(C)[C@@H]1CC=C(C)C[C@@H]21  CB1 receptor (Rattus norvegicus (Rat), UniProt P20272)            9.30
2  CC1=CCC2[C@@H](C1)c1c(O)cc(C(C)(C)C(=O)OCCCCC#N)cc1OC2(C)C (stereo in doubt)  CB1 receptor (Rattus norvegicus (Rat), UniProt P20272)            9.15
3  CCCCOC(=O)C(C)(C)c1cc(O)c2c(c1)OC(C)(C)[C@@H]1CC[C@@H](O)C[C@@H]21  CB1 receptor (Rattus norvegicus (Rat), UniProt P20272)           10.00
4  CCCCOC(=O)Cc1cc(O)c2c(c1)OC(C)(C)[C@@H]1CCC(=O)C[C@@H]21  CB1 receptor (Rattus norvegicus (Rat), UniProt P20272)            6.00
5  CC1=CC[C@@H]2[C@@H](C1)c1c(O)cc(C(C)(C)CO)cc1OC2(C)C  CB1 receptor (Rattus norvegicus (Rat), UniProt P20272)            6.35
6  CCOC(=O)C(C)(C)c1cc(OC)c(-c2cc(C)cc(C)c2)c(OC)c1  CB1 receptor (Rattus norvegicus (Rat), UniProt P20272)            6.00
7  CCCCOC(=O)Cc1cc(O)c2c(c1)OC(C)(C)[C@@H]1CC=C(C)C[C@@H]21  CB1 receptor (Rattus norvegicus (Rat), UniProt P20272)            7.39
8  CCCCCCC(O)(CC(=O)O)c1cc(O)c2c(c1)OC(C)(C)[C@@H]1CC=C(C)C[C@@H]21 (stereo partly shown)  CB1 receptor (Rattus norvegicus (Rat), UniProt P20272)            6.22
9  CCOC(=O)C(C)(C)c1cc(O)c(-c2cc(C)cc(C)c2)c(OC)c1  CB1 receptor (Rattus norvegicus (Rat), UniProt P20272)            6.00

pKi for CC1=CC[C@@H]2[C@@H](C1)c1c(O)cc(C(C)(C)C(=O)OCCBr)cc1OC2(C)C ?
8.54

pKi for CC1=CC[C@@H]2[C@@H](C1)c1c(O)cc(C(C)(C)C(=O)OCCCn3ccnc3)cc1OC2(C)C ?
8.47

---

STUDY_SYSTEM: hCB2 receptor (Homo sapiens (Human), UniProt P34972)
MEASUREMENT_DESCRIPTION: hCB2 competition-equilibrium binding with [3H]CP-55,940, membranes of HEK293 cells expressing hCB2
TEST_CONDITIONS: HEK293 cells expressing hCB2, [3H]CP-55,940; read-out: hCB2 Ki
ASSAY_READOUT: Ki (nM)
Field format: number, assumed nM, no unit text.

In [3]: df
Out[3]:
                                   molecule                              study_system  assay_readout  endpoint_value
0  CC1=CC[C@@H]2[C@@H](C1)c1c(O)cc(C(C)(C)C(=O)OCCCN=[N+]=[N-])cc1OC2(C)C [Compound 1.9]  hCB2 receptor (Homo sapiens (Human), UniProt P34972)             Ki             0.8
1  CCCCCNC(=O)C(C)(C)c1cc(O)c2c(c1)OC(C)(C)[C@@H]1CC=C(C)C[C@@H]21 [Compound 1.31]  hCB2 receptor (Homo sapiens (Human), UniProt P34972)             Ki             2.8
2  CCCCOC(=O)C(C)(C)c1cc(O)c2c(c1)OC(C)(C)[C@H]1CC=C(C)C[C@@H]21 [Compound 1.4]  hCB2 receptor (Homo sapiens (Human), UniProt P34972)             Ki             0.7
3  CCCCOC(=O)C(C)(C)c1cc(O)c2c(c1)OC(C)(C)[C@@H]1CCC(=O)C[C@@H]21 [Compound 3.4]  hCB2 receptor (Homo sapiens (Human), UniProt P34972)             Ki             6.2
4  CC(C)(C(=O)OCCCCn1ccnc1)c1cc(O)c2c(c1)OC(C)(C)[C@@H]1CC=C(CO)C[C@@H]21 [Compound 2.3]  hCB2 receptor (Homo sapiens (Human), UniProt P34972)             Ki             8.7
5  CCCCC(=O)OCC(C)(C)c1cc(O)c2c(c1)OC(C)(C)[C@@H]1CC=C(C)C[C@@H]21 [Compound 1.33]  hCB2 receptor (Homo sapiens (Human), UniProt P34972)             Ki               1
6  CC1=CC[C@@H]2[C@@H](C1)c1c(O)cc(C3(C(=O)OCCCCBr)CCC3)cc1OC2(C)C [Compound 1.18]  hCB2 receptor (Homo sapiens (Human), UniProt P34972)             Ki             0.7
7  CC1=CC[C@@H]2[C@@H](C1)c1c(O)cc(C(C)(C)C(=O)OCCCCn3ccnc3)cc1OC2(C)C [Compound 1.6]  hCB2 receptor (Homo sapiens (Human), UniProt P34972)             Ki             8.7
8  CC1=CC[C@@H]2[C@@H](C1)c1c(O)cc(C(C)(C)C(=O)OCCBr)cc1OC2(C)C [Compound 1.36]  hCB2 receptor (Homo sapiens (Human), UniProt P34972)             Ki             7.7
9  CC1=CC[C@@H]2[C@@H](C1)c1c(O)cc(C3(C(=O)OCCCCN=[N+]=[N-])CCC3)cc1OC2(C)C [Compound 1.21]  hCB2 receptor (Homo sapiens (Human), UniProt P34972)             Ki             2.7

Ki for CCCCOC(=O)C(C)(C)c1cc(O)c2c(c1)OC(C)(C)[C@@H]1CC[C@H](O)C[C@@H]21 [Compound 3.8] ?
4.5

Ki for CCCCCCC(O)(CC(=O)O)c1cc(O)c2c(c1)OC(C)(C)[C@@H]1CC=C(C)C[C@@H]21 (stereo partly shown) [Compound 1.22] ?
1000

Ki for CCOC(=O)C(C)(C)c1cc(OC)c(-c2cc(C)cc(C)c2)c(OC)c1 [Compound 4.3] ?
1000

Ki for CC1=CC[C@@H]2[C@@H](C1)c1c(O)cc(C(C)(C)C(=O)OCCCCN3CCOCC3)cc1OC2(C)C [Compound 1.24] ?
39.9

Ki for CC1=CC[C@@H]2[C@@H](C1)c1c(O)cc(C(C)(C)C(=O)OCCCn3ccnc3)cc1OC2(C)C [Compound 1.10] ?
1.2

Ki for CCCCOC(=O)Cc1cc(O)c2c(c1)OC(C)(C)[C@@H]1CCC(=O)C[C@@H]21 [Compound 3.2] ?
1000

Ki for CC1=CC[C@@H]2[C@@H](C1)c1c(O)cc(C(C)(C)C(=O)OCCCC#N)cc1OC2(C)C [Compound 1.8] ?
1.4

Ki for CC1=CC[C@@H]2[C@@H](C1)c1c(O)cc(C(C)(C)C(=O)OCCCBr)cc1OC2(C)C [Compound 1.7] ?
0.6

Ki for CCCSC(=O)C(C)(C)c1cc(O)c2c(c1)OC(C)(C)[C@@H]1CC=C(C)C[C@@H]21 [Compound 1.30] ?
0.7

Ki for CCCCOC(=O)C(C)(C)c1cc(O)c2c(c1)OC(C)(C)[C@@H]1CC[C@@H](O)C[C@@H]21 [Compound 3.6] ?
0.2

Ki for CCCCOC(=O)C(C)(C)c1cc(O)c2c(c1)OC(C)(C)[C@@H]1CC=C(CO)C[C@@H]21 [Compound 2.2] ?
0.8

From: patent US10882838B2
